test_target: CYP2D6*17 (Homo sapiens, UniProt P10635, R296C/S486T/T107I)
assay_explanation: Soret
Assay type: binding
condition_notes: Ks, CYP2D6*17 nanodiscs, 1 μM CYP2D6, room temperature, N=3, ± SEM
pKd: −log10 of the molar value.
Mark 0 (no) for pKd values under 5, and 1 (yes) for everything at or above.

- molecule: "CCCCCc1cc(O)c2c(c1)OC(C)(C)[C@@H]1CCC(C)=C[C@@H]21 [THC, Tetrahydrocannabinol]"
  cat: "0 (no)"

Is it the case that CCCc1cc(O)c2c(c1)OC(C)(C)[C@@H]1CCC(C)=C[C@@H]21 [THCV, Δ9-Tetrahydrocannabivarin] has pKd reaching or exceeding 5?
1 (yes)

Provenance of the data: paper PMC8455456
